Just for reference, the nanobody polyreactivity screen of Harvey et al. (2022) is where these values come from.

Experiment: yeast display, Sf9 membrane polyspecificity reagent, FACS + sequencing; frameworks hold sequencing errors

{"columns": ["record.sequence", "polyreactivity (PSR sort gate)"],
 "data": [
  ["QVKLVESRGGLVQAGGSLRLSCAASARIFVHNAKGCYRQAPGKAREFDAAITRRGGSTYADSVKGRFRISRDNAKNTVYLQMTSLKPEDTAVYYCNAESYYGIFRYNYDYWGQGTQVTVSS", "high polyreactivity"],
  ["QVQLVESGGGLVQAGGSLRLSCAASGRIFGVNAMGWYRQAPGKERELVAAINYSGGRTSYADSVKGRFTISRDNEKNTVYLQMKSLKPEDTAVYYCAKYGLRGGYLYYYWGQGTQVTVSS", "high polyreactivity"],
  ["QVQLVESGGGLVQAGGSLRLSCAASGRIFFTNAMGWYRQAPGKERELVATISSSDGSTYYADSVTGRFTISRDNAKNTVYLQMNSLKPEDTAVYYCAARYRSTFYNTYDRVYWGQGTQVTVSS", "high polyreactivity"],
  ["QVQLVESGGGLVQAGGSLRLSCAASGSTFVSNAMGWYRQAPGKERELVATITTSGGSTYYADSVKGRFTISRDNAKNTVYLQMNSLKPEDTAVYYCNADYDFNFIDWVYFLYDYWGQGTQVTVSS", "low polyreactivity"],
  ["QVQLVESGGGLVQAGGSLRLSCAASGRIFDYYAMGWYRQAPGKERELVAAITSSGGSTYYADSVKGRFTISRDNAKNTVYLQMNSLKPEDTAVYYCAAGRKVQSRRYGYWGQGTQVTVSS", "high polyreactivity"],
  ["QVQLVESGGGLVQAGGSLRLSCAASGSTFGEYAMGWYRQAPGKERELVAAITFSGGSTYYADSVKGRFTISRDNAKNTVYLQMNSLKPEDTAVYYCNADGVWVYGYRWEWLWYDYWGQGTQVTVSS", "low polyreactivity"],
  ["QVQLVESGGGLVQAGGSLRLSCAASGLTFNFYAKGWYRQAPGKEREFVAAISRSGGSTHYADSVKGRFTISRDYAKYTVYLQMYSLKPEDTAVYYCAADGGRKNYDYWGQGTQVTVSS", "high polyreactivity"],
  ["QVHLVESGGRLVQAGGSLRLSCAASGSTFTINVMGWYRQAPGKERELVADISWSGGSTYYADSVKGRFTISRDNAKNTVYSQMNSLYPVYTAVSYCATDGAYWTYYSWYDYWGQGTQVTVSS", "low polyreactivity"],
  ["QVQLVESGGGLVQAGGSLRLSCAASGRTFERYALGWYRQAPGKERELVAAIDFSGGSTSYADSVKGRFTISRDNAKNTVYLQMNSLKPEDTAVYYCAARETAHGGKEDDYWGQGTQVTVSS", "low polyreactivity"],
  ["QVQLVESGGGLVQAGGSLRLSCAASGSIFYGYAMGWYRQAPGKERELVATITSGDSTNYADSVKGRFTISRDNAKNTVYLQMNSLKPEDTAVYYCAADPAHYVFWYGRYGYDYWGQGTQVTVSS", "low polyreactivity"],
  ["QDQLVESGGGLVQAGGSLRLSCAASGRIFKYNAMGWYRQAPRKERELVAAITRGGSTNYADSVKGRFTISRDNAKNTVYFQLNSLKPEDTEVYYCAALRSRYGRDMDSWGQGTQVSVSS", "high polyreactivity"],
  ["QVQLVESGGGLVQAGGSLRLSCAASGFTFVKYAMGWYRQAPGKERELVAAISRSGGRTYYADSVKGRFTISLDNAKNTVYLQMNSLKPEDTAVYYCAADVATTHELDYWGQGTQVTVSS", "high polyreactivity"],
  ["HVQLVQSGGGLVQAGGSSRLSCAASGSIFFFNTMGWYSQAPGKERELVAVITSGGSTYYADSVTGRFRISRDNAKNTVYVQMNSLKPEDPAVYYCAARYLPYRRIKYDYWGQGTQVTVSS", "low polyreactivity"],
  ["QVQLVESGGGLVQAGGSLRLSCAASGSIFSSYAMGWYRQAPGKERELVAAISSSGDSTYADSVKGRFTISRDNAKNTVYLQMNSLKPEDTAVYYCAVGGAGSDDYWGQGTQVTVSS", "low polyreactivity"],
  ["QVQLVDSGGGLLQAGGSLRLSCAASGRTCRGYAMGWYRQAPGKEWELVAAITSGGSTNYADSVKGRFTISRDNATNTVSIQMNRLKPEETAVYYCAAGRSTGQYRYYFWGLGTQVTVSS", "high polyreactivity"],
  ["QVQLVESGGGLVQAGGSLRLSCAASGRIVHQYAMGWNRQAPGKERELVAAITTRGTSTYYADSVKGRFTISRDNAKNTVYLQMNSLKPEDTAVYYCAAKFFGSVGHVAGDYWGQGTLVTVSS", "high polyreactivity"],
  ["QVQHVESGGGLVQAGGSLRLSCAASGRIFSGYAMGWYRQAPGKERELVAAINRSGGSTYYADSVKGRFTISRDNAKNTVYLQMNSLKPDDTAVYYCAADKSDVYGYFRQSESYGYWGQGTQVTVSS", "low polyreactivity"],
  ["QVHLVESGGGLVQAGGSLRLSCAASGFTFVRYAMGWYRQAPGKERELVASISYSGGSTYYADSVKGRFTISRDNAKNTVYLQMNSLKPEDTAVYYCAALHRINTLLLPMDYWGQGTQVTVSS", "high polyreactivity"],
  ["QVQLVESGGGLVQAGGSLGLSCAASGRTFANNAMGWYRQAPGKERELVARISNSGSTNYADSVKGRFTISRDNAKNTVYLQMNSLKPEDTAVYDCAARIVRLYSRYDYWGQGTQETVSS", "low polyreactivity"],
  ["QVQLVESGGGLVQAGGSLRLSCAASGITFGRYAMGWYRQAPGKERELVAAISWSGGSTYYADSVKGRFTISRDNAKNTVYLQMNSLKPEDTAVYYCATRIRTVAYNYWGQGTQVTVSS", "high polyreactivity"],
  ["QVQLVESGGGLVQAGASLRLSCAASGITFLDYAMGWYRQAPGTEREMVAVITWNDGSTYYADSVKGRFTISRDNAKNTVYLQMNSLKPEDTAVYYCAAEYADSWSAFDWNYYYWGQGTQVTVSS", "high polyreactivity"]
]}

====

Assay: yeast display, Sf9 membrane polyspecificity reagent, FACS + sequencing; frameworks hold sequencing errors

{"columns": ["record.sequence", "polyreactivity (PSR sort gate)"],
 "data": [
  ["QVQLVESGGGLVQAGGSLRLSCAASGNIFYSYAMGWYRQAPGKERELVAAISSSGGGTYYADSVKGRFTISRDNAKNTVYLEMNSLKPEDTAVYYCATTARPTRYSSVRYYYWGQGTQVSVSS", "high polyreactivity"],
  ["QVQLVESGGGLVQAGGSLRLSSAASGSTSYYYVMGWYRQAPGKERELVAAISNGDTTNYADSVKGRITITRDNEKNTVYLQMNSLKPEVTAVDYCAAVYYRSFHDYGYWGQGTQVTVSS", "low polyreactivity"],
  ["QVQLVESGGGLVQAGGSLRLSCAASGSTCGTNAMGWYRQAPGKERELVAAITWSGGRTYYADSVKGRFTISRDNAKNTVYLQMISLKPEDTAVYYCNAGYSYRRRNGYGYDYWGQGTQVTVSS", "high polyreactivity"],
  ["QVQLVESGGGLVQARGILRLSCAASGNIFGRYAMGWSRQAPGKERELVAAITRSCGRTYYADSVKGRFTISRHHAKNTVYLQRNSLKPEDTAGYYCAAVGGRDVYPVVDRDYWGQGTQLTVSS", "low polyreactivity"],
  ["QVQLVESGGGLVQAGGSLRLSCAASGRSFWAYAMGWYRQETGTERELVADITTSGGSTNYADSVKGRFTISRDNAKNTVYLQMNSLKPEDTAVYYCNADPTYHVVNCVGYWGHGTQVTVSS", "low polyreactivity"],
  ["QVQLVESGGGIVQAGGSLRLSCAASGIIIFYKAMGWDRQAPGKERELVATISRRGGSTYYADSVKGRFTISRDNAKNTVYLQMNSLKPEDTAVYYCARDVGAGSKISRLSSYNYWGQGTQVTVSS", "low polyreactivity"],
  ["QVQLVESGGGLVQAGGSLRLSCAASGSTFRHNAMGWYRDAPGTERELVATIRTSGGTTYYADSVKGRFTISRDNAKNTVYLQMNSLKPEDTAVYYCAAKYSLLRQYNRLDYWGQGTQVTVSS", "low polyreactivity"],
  ["QVHLVESGGGLVQAGGSLRLSCAASGITFDLYAMGWYRQAPGKERELVAASTYYADSVKGRFTISRDNAKNTVYLQMNSLKPEDTAVYYCNTREPVTYDYWGQGTQVTVSS", "high polyreactivity"],
  ["QVQLVESGGGLVQAGGSLRLSCAASGRIFRAYAMGWYRQAPGKERELVASITGSGGSTYYADSVKGRFTISRDNAKNTVYLQMNSLKPEDTAVYYCAVASYRVWGVGTRFYYWGQGTQVTVSS", "high polyreactivity"],
  ["QVQLVESGGGLVQAGGSLRLSCAASGFTFRRNAMGWYRKAPGKERELVAAISSSGGSTNYADSVKGRFTISRDNAKNTVYLQMNSLKPEDTAVYYCNRGSRRLGSIVWYDYWGQGTQVTVSS", "high polyreactivity"],
  ["QVQLVESGGGLVQAGGSLRLSCAASGRTLRYYAMGWYRQAPGKERELVATISRAGRTNYADSVKGRFTISRDNAKNTVYLQMNSLKPEDTAVYYCAAGRVVYSYSDNYDYWGQGTQVTVSS", "high polyreactivity"],
  ["QVQLVESGGGLVQAGGSLRLSCAASGRTLGGNAMGWYRQAPGKERELVAAITNSASTYADSVKGRFTISRDNAKNSVYLQMNSLKPEDTAVYYCNAPVPSDQHGDYWGQGTQVTVSS", "low polyreactivity"],
  ["QVHLVESGGGLVQAGGSLRLSCAASGLILSYNAMAWYRQAPGKERELDAAISYSGGSTYYADSVKGRFTITRDNAKNTVYLQMNSLITEDSAVYYCAAVWRRQGSAYLGSYGYDYWGQVTQVTVSS", "high polyreactivity"],
  ["QVQLVESGGGLVQAGGSLRLSCSASGSIFKIYAMGWYRQAPGKERELVASITGSGGSTYYADSVKGRFTISRDNAKNTVYLQMNSLKPEDTAVYYCAAAVLGSSKSEVDPDRPEYYYWGQGTQVTVSS", "low polyreactivity"],
  ["QVQLVESGGGLVQAGGILRLSCAASGRIFLYYTMGWYRQAPGKEREFVAAITRSGSSTYYADSVKGRFTISRDNAKNTVYLQMNSLKREDTAVYYCNRVFTWRYGYRYEYWGQGTHVTVSS", "high polyreactivity"],
  ["QVQLVESGGGLVQAGGILRLSCAASGRTFLVNAMGWYRQAPGKERELVAAISQRGGSTDYADSVKGRFTISRDNAKNTVYLQMNSLKPEDTAVYYCAVRWGYLYDYWGQGTQVTVSS", "low polyreactivity"],
  ["QVQLVESGGGLVQAGGSLRLSCAASGRIFDRYVMGWYRQAPGKERELVAAISSGGSTYYADSVKGRFTISRDNAKNTVYLQMNSLKPEDTAVYYCAADRRSKYDYWGQGTQVTVSS", "low polyreactivity"],
  ["QVQLVDSGGGLVQAGGSLRLSCAASGLTFQYKAMGRYRHAPGKERELVATISQSGGSTYYADSVKGRFTISRDNAKNTVYLQMNSLKPEDTAVYYCAADGAWGTASYSVAFDYWGQGTQVTVSS", "low polyreactivity"],
  ["QVQLVESGGGLVQAGGSLRLSCAASGRTFGYYAMGWYRQAPGKERELVAAITDSGDITYYADSVKGRFTISRDNAKNTVYLQMNSLKPEDTAVYYCAADSYEFWSEVYTGESWGQGTQVTVSS", "low polyreactivity"],
  ["QVQLVESGGGLVQAGGSLRLSCAASGSIFIANTMGWYRQAPGKERELVAAISSDGGSTYYADSVKGRFTISRDNAKNTVYLQMNSLKPVDTAVYYCAVDGLEIGDTGFDYWGQGTQVTVSS", "low polyreactivity"],
  ["QVQLVESGGGLVQAGGSLRLSCAASGRIFTIYAMGWYRQAPGKERELVAGIRGGGSTNYADSVKGRFTISRDNAKNTVYLLMNSLKPEDTAVYYCAAEVRRYVIVPYYYWGQGTQVTVSS", "high polyreactivity"]
]}
